assay: NCI Yeast Anticancer Drug Screen. Data for the cln2 rad14 strain (AID 165);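 further: 0% = growth equal to vehicle treated cultures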; details: S. cerevisiae cln2 rad14 strain, at 50.0 µM, active compounds read high
This is part of a sample that, as a whole, favours compounds with a hit. Of some 79,000 tested, about 15% had one in any assay.
Readout Kind: growth inhibition (%)
One number for each entry, in %.

Worked cases, growth inhibition given:
Compound	growth inhibition / %
Cc1sc2nc(N(C)C)oc(=O)c2c1C	1.5
O=C(NC(=S)Nc1ccc(Cl)cc1C(=O)c1ccccc1)c1ccc(Cl)cc1Cl	74.4
O=C1CNC(=O)N1c1ccccc1	-9.2
C=CCc1ccc(OC(=O)Nc2ccc(S(=O)(=O)CC)cc2)c(OC)c1	-19.9
COc1cc(C)c([N+](=O)[O-])cc1[N+](=O)[O-]	-2.35

For every record below, what is its growth inhibition?
1. CCCCN=NNc1cn(C2OC(CO)C(O)C2O)c(=O)[nH]c1=O (stereo not given)
2. CC(C)=NNS(=O)(=O)c1ccc(C)cc1
3. CN(C)C(=O)Nc1ccc(C#N)cc1
4. CCCCOC(=O)/C=C\C(=O)NC(=O)NC(C)(C)C
5. C=C(Cl)COc1ccc(OCC(=C)Cl)cc1

[13.3, 7.2, -25.1, -33.1, 22.6]

* * *

assay: NCI Yeast Anticancer Drug Screen. Data for the sgs1 mgt1 strain (AID 161);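 further: 0% = growth of cultures given vehicle only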; conditions: S. cerevisiae sgs1 mgt1 strain, at 50.0 µM, active compounds read high
This is part of a sample that, as a whole, favours compounds with a hit. Of some 79,000 tested, about 15% had one in any assay.
Note to self: values exactly at 10% are t. So growth inhibition at or above 10% is t, below is f.

Please tell me: is the molecule O=C(NCCCC1NC(=O)/C(=C(O)/C=C/C=C/c2ccccc2)C1=O)OCc1ccccc1 (stereo unspecified) at or over 10% in terms of growth inhibition? t

Please tell me: is the molecule CCOC(=O)C(=O)Cc1cc(=O)n(C)c2ccccc12 at or over 10% in terms of growth inhibition? t

Please tell me: is the molecule COC(=O)C(C(=O)c1ccccc1)c1ccccc1 (stereo unspecified) at or over 10% in terms of growth inhibition? f

Please tell me: is the molecule CCCCN(CC)NC(=S)Nc1ccccc1 at or over 10% in terms of growth inhibition? f

Please tell me: is the molecule O=C(NNC(=O)c1ccc(Cl)cc1Cl)c1ccc2ccccc2c1 at or over 10% in terms of growth inhibition? f

Please tell me: is the molecule N#CC(c1ccccc1)C1CCN(Cc2ccccc2)CC1 (stereo unspecified) at or over 10% in terms of growth inhibition? t

Please tell me: is the molecule Cc1cc2c(C(C)C)c(O)c(O)c(C=Nc3ccc(-c4ccccc4)cc3)c2c(O)c1-c1c(C)cc2c(C(C)C)c(O)c(O)c(C=Nc3ccc(-c4ccccc4)cc3)c2c1O at or over 10% in terms of growth inhibition? f

Please tell me: is the molecule O=C1CNC(=O)N1c1ccccc1 at or over 10% in terms of growth inhibition? f

Please tell me: is the molecule COc1cc2c(c(O)c1C)C(=O)CC(c1ccccc1)O2 (stereo unspecified) at or over 10% in terms of growth inhibition? t

Please tell me: is the molecule O=C(O)c1cc([N+](=O)[O-])cc(P(=O)(O)O)c1 at or over 10% in terms of growth inhibition? f

Please tell me: is the molecule CCOC(=O)C(Cc1c[nH]c2ccccc12)NCCN (stereo unspecified) at or over 10% in terms of growth inhibition? f

* * *

assay: NCI Yeast Anticancer Drug Screen. Data for the cln2 rad14 strain (AID 165);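 further: 0% = growth equal to vehicle treated cultures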; conditions: S. cerevisiae cln2 rad14 strain, at 50.0 µM
This is part of a sample that, as a whole, favours compounds with a hit. Of some 79,000 tested, about 15% had one in any assay. Calls of active or inactive are those of the source. No stated cut-off is given here; in the data, active means growth inhibition above about 70%; inactive means the rest.
Pick one: true (1) = active, false (0) = inactive

In [3]: df
Out[3]:
                    compound  discrete_label
0  CC(=O)n1oc2ccc(Br)cc2c1=O       false (0)

Hi, sorry to bother you, what did the test record for O=C1NCC/C1=C\c1ccccc1 ? false (0)

Hi, sorry to bother you, what did the test record for CCCCCCCCCCCC[N+]12CC[N+](C)(CC1)CC2 ? false (0)

Hi, sorry to bother you, what did the test record for CN(C)C(=S)Oc1cc(Cl)c(Cl)cc1Cl ? true (1)

Hi, sorry to bother you, what did the test record for CCCNC1CC(n2cc(C)c(=O)[nH]c2=O)OC1CO (stereo unspecified) ? false (0)

* * *

I'd be grateful if you could share measured growth inhibition for these entries.
experiment: NCI Yeast Anticancer Drug Screen. Data for the bub3 strain (AID 167); conditions: S. cerevisiae bub3 mutant strain, at 50.0 µM, active compounds read high
About 79,000 compounds went through this panel and 15% of them were active in at least one assay; those are over-represented in the sample as a whole.
One number for each entry, in %.

In [3]: df
Out[3]:
                                   compound       readout_kind  readout_unit  measured_result
0  Clc1ccc(N=Cc2ccc(C=Nc3ccc(Cl)cc3)cc2)cc1  growth inhibition             %               15
1  CC(=O)NC1=NCC(CSc2nc3ccccc3s2)S1 (stereo unspecified)  growth inhibition             %              9.7
2              O=C(O)c1ccc[n+](Cc2ccccc2)c1  growth inhibition             %            -5.95
3  Cc1ccc(NC(=NCCCN(C)C)C(c2ccccc2)c2ccccc2)cc1  growth inhibition             %             11.4
4  O=[N+]([O-])c1ccccc1S(=O)(=O)NC1c2ccccc2Oc2ccccc21  growth inhibition             %             -0.8
5  COc1cc(-c2cc(-c3cc([N+](=O)[O-])c(/C=N/NC(=O)c4ccncc4)o3)ccc2OC)ccc1C  growth inhibition             %             11.2
6  CC(=O)NC(CCC(=O)C=[N+]=N)C(=O)O (stereo unspecified)  growth inhibition             %             23.8
7  C(=N\c1oc(-c2ccccc2)c(-c2ccccc2)c1-c1ccccc1)/c1ccccc1  growth inhibition             %              4.2

For every record below, what is its growth inhibition?
1. CC1CCC(C(C)C)C(OC(=O)c2ccccc2O)C1 (stereo unspecified)
2. N#CCc1cn(-c2ccccc2)nn1
3. Fc1ccccc1C1CC(c2ccc3ccccc3c2)=Nc2ccccc2S1 (stereo unspecified)

12
0.45
10.4

* * *

I'd be grateful if you could share measured growth inhibition for these entries.
experiment: NCI Yeast Anticancer Drug Screen. Data for the mec2-1 strain (AID 157); settings: S. cerevisiae mec2-1 strain, at 50.0 µM, active compounds read high
Compounds without any hit were thinned out: in the full panel of roughly 79,000, 15% have a hit.
Give bare numbers, in %.

>>> df
                         compound  measured_result
0  N#CCN1CCOCCOCCN(CC#N)CCOCCOCC1            -0.75

For every record below, what is its growth inhibition?
1. O=C1Nc2ccc3[nH]ncc3c2C1=O
2. CCCCCC(=O)OC
3. O=C1CCCC2=C1CC1=C(CCCC1=O)N2c1cccc2ccccc12
4. O=C(CNC(=O)C(CO)NC(=O)OCc1ccccc1)OCc1ccccc1 (stereo unspecified)
5. CN(C)CCSc1nc2ccccc2o1
6. CCOC(=O)C(C)OC(=O)C(C)OC(C)=O (stereo unspecified)
7. CCSCCCSCCSCC

[-0.65, -8.15, -16, 3, 20.8, 23.8, 46.5]

For every record below, what is its growth inhibition?
1. Cc1cc2c(cc1Cl)SC(NNC(=O)c1ccncc1)=NS2(=O)=O
2. O=C(CNOCc1ccccc1)OCc1ccccc1

1. -39.8
2. 16.1

* * *

Assay: NCI Yeast Anticancer Drug Screen. Data for the rad50 strain (AID 155);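 further: 0% = growth of vehicle-only cultures of the same strain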
Settings: S. cerevisiae rad50 strain growth inhibition; at 50.0 µM; active compounds read high
Procedure: Growth inhibition of yeast strains with defined genetic alterations is measured as a screen for potential anti-cancer activity. Selected strains with alterations in DNA damage repair or cell cycle control were exposed to compounds and growth inhibition was measured relative to vehicle treated controls. The strain used in this assay is rad50
The panel holds about 79,000 compounds, 15% with a hit somewhere; the sample as a whole holds those more often.
Readout Kind: growth inhibition (%)
Answers are plain numbers, in %.

Worked cases, growth inhibition given:
>>> print(df.to_string())
                              sample_smiles  measured_result
0          CC(=O)Nc1ccc2c(c1)Cc1cccc(O)c1-2             0.65
1    CC(=O)Nc1cc(NC(C)=O)c(N=O)c(NC(C)=O)n1            -19.5
2           C[Si](C)(C)CCCn1ccc(=O)[nH]c1=O             45.6
3  C/C(CC(=O)Nc1ccc(Cl)cc1)=N\NC(=O)C[n+]1ccccc1             1.35
4  c1ccc(-c2cccc(-c3cccc(-c4ccccc4)c3)c2)cc1             18.1

For every record below, what is its growth inhibition?
1. O=C(O)CCC(=O)Nc1ccccc1C(=O)O
2. C=CCn1c(=O)cc[nH]c1=S
3. CC(/C=N/NC1=NCCCCN1)=N\NC1=NCCCCN1
4. CCCCCCCCCCCCCCCC/C=C\CCCCCCCCCCCCCCCCC
5. CC(=O)c1c(-c2ccc(Cl)cc2)c(-c2ccc(Cl)cc2)nn(CCN)c1=O

-1.15
-11.6
-4.95
-7.8
38.1

For every record below, what is its growth inhibition?
1. N/C(=N\O)C(=O)c1ccccc1
2. CCN(CC)C(C)(C)C(=O)/C=C/c1ccc(C)cc1

9.8
5.45

Hello, the source for this data is PubChem BioAssay (NCI), in case you need it.
